# System: NOMO1
# protocol-details: cell viability relative to DMSO control; higher = less cytotoxic
# protocol-conditions: HPLM + 10% dialyzed FBS; 48 h; 0.00702 µM
# cell viability values compiled below

Please review the following examples before continuing.
Summary line: CN[C@@H]1C[C@H]2O[C@@](C)([C@@H]1OC)n1c3ccccc3c3c4c(c5c6ccccc6n2c5c31)C(=O)N[C@H]4O , NOMO1, reported cell viability = 93.1%

Summary line: COC1=CC=C(C=C1)C2CC(=N/N2C3=CC=C(C=C3)[S+](N)([O-])=O)\C4=CC=CC=C4 (centres undefined) , NOMO1, reported cell viability = 98.8%

Summary line: CN[S+](=O)([O-])CCc1ccc2[nH]cc(C3CCN(C)CC3)c2c1 , NOMO1, reported cell viability = 91.3%

New cases:
Summary line: OCCCNc1cc(-c2ccnc(Nc3cccc(Cl)c3)n2)ccn1 , NOMO1, reported cell viability = 119%

----------
# Test system: P12-Ichikawa
# protocol-details: cell viability relative to DMSO control; higher = less cytotoxic
# protocol-conditions: RPMI 5 mM glucose + 10% FBS; 48 h; 46.1 µM
# cell viability values compiled below
Numeric only. Scale: %

Summary line: Cc1cc(Cl)ccc1OCCCC(=O)NO , P12-Ichikawa, reported cell viability = 3.91

Summary line: CCN(C)C(=O)Oc1cccc([C@H](C)N(C)C)c1 , P12-Ichikawa, reported cell viability = 99.2

Summary line: O=c1[nH]cnc2c1ncn2[C@H]1CC[C@@H](CO)O1 , P12-Ichikawa, reported cell viability = 65.5

New cases:
Summary line: Cc1cn(CCN2CCN(c3ccccc3-c3cc(C#N)cc(C(=O)NCCCN4CCCC4)c3)CC2)c2ccccc12 , P12-Ichikawa, reported cell viability = 15.6

Summary line: COC1=CC2=C(C=C1OC)[C@H]3[C@@H](CO2)OC4=C(C=CC5=C4\C=C/C(C)(C)O5)C3=O , P12-Ichikawa, reported cell viability = 3.34

Summary line: Cc1ccc(-c2ncn(-c3ccc(Nc4nccc(-c5cccc(N6CCOCC6)c5)n4)cc3)n2)cn1 , P12-Ichikawa, reported cell viability = 3.43

Summary line: COC[C@H]1OC(=O)C2=COC3=C2[C@@]1(C)\C4=C(\[C@@H]5CC[C@H](O)[C@@]5(C)C[C@H]4OC(C)=O)C3=O , P12-Ichikawa, reported cell viability = 81.6

Summary line: CC(C)NCC(O)COc1ccc(CCOCC2CC2)cc1 (stereo not given) , P12-Ichikawa, reported cell viability = 123

Summary line: CC(C)(C)c1cc(C(=O)O)c(NC(=O)Nc2ccc3[nH]ncc3c2)s1 , P12-Ichikawa, reported cell viability = 73.1

Summary line: COc1cccc2c1C(=O)c1c(O)c3c(c(O)c1C2=O)C[C@@](O)(C(C)=O)C[C@@H]3O[C@H]1C[C@H](N)[C@H](O)[C@H](C)O1 , P12-Ichikawa, reported cell viability = 9.59

Summary line: OCCCNc1cc(-c2ccnc(Nc3cccc(Cl)c3)n2)ccn1 , P12-Ichikawa, reported cell viability = 5.79

Summary line: CCCCCCCCc1ccc(CCC(N)(CO)CO)cc1 , P12-Ichikawa, reported cell viability = 3.8

Summary line: CC(C)(C)NC(=O)[C@@H]1CN(Cc2cccnc2)CCN1C[C@@H](O)C[C@@H](Cc1ccccc1)C(=O)N[C@H]1c2ccccc2C[C@H]1O.O=S(=O)(O)O , P12-Ichikawa, reported cell viability = 66.1

Summary line: CC(C)c1ccccc1Cc1cc(C(=O)Nc2ccc([S+](=O)([O-])c3ccccc3C(C)(C)C)cc2)c(O)c(O)c1O , P12-Ichikawa, reported cell viability = 87.7

Summary line: Cc1cc(O)c2c(c1)C(=O)c1cc(O)cc(O)c1C2=O , P12-Ichikawa, reported cell viability = 86.6

Summary line: COC1=CC=C(C=C1)C2CC(=N/N2C3=CC=C(C=C3)[S+](N)([O-])=O)\C4=CC=CC=C4 (stereo not given) , P12-Ichikawa, reported cell viability = 1.01

Summary line: CN(C)CCN(Cc1ccc(Cl)cc1)c1ccccn1.Cl , P12-Ichikawa, reported cell viability = 82.4
